Biological target: Lethal factor (Bacillus anthracis, UniProt P15917)
Sequence (P15917 whole entry): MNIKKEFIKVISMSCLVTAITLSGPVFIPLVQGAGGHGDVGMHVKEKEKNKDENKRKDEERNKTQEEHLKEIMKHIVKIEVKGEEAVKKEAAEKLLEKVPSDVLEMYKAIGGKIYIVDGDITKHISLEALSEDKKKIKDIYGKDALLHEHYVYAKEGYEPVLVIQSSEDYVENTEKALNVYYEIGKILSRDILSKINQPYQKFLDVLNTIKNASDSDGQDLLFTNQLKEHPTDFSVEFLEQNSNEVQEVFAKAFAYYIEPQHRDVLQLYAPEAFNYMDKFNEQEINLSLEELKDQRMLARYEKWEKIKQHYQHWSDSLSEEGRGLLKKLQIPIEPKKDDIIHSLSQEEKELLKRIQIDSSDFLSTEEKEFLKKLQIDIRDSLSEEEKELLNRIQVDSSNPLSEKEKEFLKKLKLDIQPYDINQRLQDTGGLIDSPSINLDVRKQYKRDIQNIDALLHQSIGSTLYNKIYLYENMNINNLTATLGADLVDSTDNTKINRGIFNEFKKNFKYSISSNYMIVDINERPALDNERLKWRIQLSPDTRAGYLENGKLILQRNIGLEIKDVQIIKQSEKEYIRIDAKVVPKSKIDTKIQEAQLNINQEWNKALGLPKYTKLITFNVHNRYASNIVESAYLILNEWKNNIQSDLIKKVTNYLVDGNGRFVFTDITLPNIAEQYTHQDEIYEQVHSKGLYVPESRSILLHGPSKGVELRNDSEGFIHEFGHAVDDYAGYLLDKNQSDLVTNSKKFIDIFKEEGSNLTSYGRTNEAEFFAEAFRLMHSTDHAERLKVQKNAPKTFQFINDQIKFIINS
measured_endpoint: IC50
Answers without a unit are incomplete; give the number and then its unit.

### Prompt Field request: IC50 | item: O=C(O[C@@H]1Cc2c(O)cc(O)cc2O[C@@H]1c1cc(O)c(O)c(O)c1)c1cc(O)c(O)c(O)c1 [EPIGALOCATECHIN GALLATE]
### Response 97 nM

----------
target: Adenosine deaminase (Homo sapiens)
Sequence (P00813 whole entry): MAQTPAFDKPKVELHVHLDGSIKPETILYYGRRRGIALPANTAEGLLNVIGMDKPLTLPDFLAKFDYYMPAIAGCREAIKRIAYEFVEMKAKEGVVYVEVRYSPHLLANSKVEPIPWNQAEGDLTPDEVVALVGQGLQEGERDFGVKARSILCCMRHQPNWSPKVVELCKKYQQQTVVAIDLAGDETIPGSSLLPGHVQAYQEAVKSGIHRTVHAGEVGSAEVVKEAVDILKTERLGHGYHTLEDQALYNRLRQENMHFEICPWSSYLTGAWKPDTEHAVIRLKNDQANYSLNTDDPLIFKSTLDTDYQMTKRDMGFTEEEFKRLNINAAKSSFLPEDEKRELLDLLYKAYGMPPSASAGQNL
measured_endpoint: pKi
Remember, pKi is on a log scale: it is -log10 of the molar concentration.

### Prompt Field request: pKi | item: CCCCCC[C@H]([C@H](C)O)n1cnc2c(N)ncnc21 [(+)-EHNA]
### Response 9.00

----------
target: Disintegrin and metalloproteinase domain-containing protein 10 (Homo sapiens)
Sequence (O14672 whole entry, the tested form may be a part): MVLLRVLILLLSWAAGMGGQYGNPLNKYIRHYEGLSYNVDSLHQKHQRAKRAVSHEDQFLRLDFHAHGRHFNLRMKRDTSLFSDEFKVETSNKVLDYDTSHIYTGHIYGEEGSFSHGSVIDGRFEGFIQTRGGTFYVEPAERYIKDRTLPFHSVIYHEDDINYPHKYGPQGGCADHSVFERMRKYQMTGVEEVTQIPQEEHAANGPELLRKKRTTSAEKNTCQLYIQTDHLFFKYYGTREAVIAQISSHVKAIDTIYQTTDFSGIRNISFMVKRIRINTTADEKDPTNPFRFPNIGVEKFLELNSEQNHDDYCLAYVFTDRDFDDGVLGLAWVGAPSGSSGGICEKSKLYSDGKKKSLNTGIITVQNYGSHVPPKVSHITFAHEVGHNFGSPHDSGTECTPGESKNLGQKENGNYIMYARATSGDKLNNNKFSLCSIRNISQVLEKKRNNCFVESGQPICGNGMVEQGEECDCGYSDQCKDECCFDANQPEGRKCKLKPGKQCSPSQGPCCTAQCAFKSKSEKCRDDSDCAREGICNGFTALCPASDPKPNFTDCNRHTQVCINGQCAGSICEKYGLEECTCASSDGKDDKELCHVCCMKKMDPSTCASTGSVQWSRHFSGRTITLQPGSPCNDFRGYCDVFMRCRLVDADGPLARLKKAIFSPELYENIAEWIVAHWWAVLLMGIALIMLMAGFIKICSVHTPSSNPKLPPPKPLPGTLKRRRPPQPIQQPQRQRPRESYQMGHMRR
measured_endpoint: IC50 (nM)
Quick note: give the figure in nM, leave out the unit.

### Prompt Field request: IC50 | item: CNC(=O)[C@@H](NC(=O)C(CCCc1ccccc1)[C@H](C)N(O)C=O)C(C)(C)C (stereo partly specified)
### Response 5.3

----------
assay: Inhibition of farnesyltransferase (unknown origin); set-up: species or system Homo sapiens
measured_endpoint: IC50 (nM)
Quick note: give the figure in nM, leave out the unit.

### Prompt Field request: IC50 | item: CCC(C)[C@@H](CO[C@@H](Cc1ccccc1)C(=O)N[C@@H](CCS(C)(=O)=O)C(=O)O)NC[C@@H](N)CS (stereo partly specified)
### Response 240

----------
Provide the reported pKi of each item.
Target: Lethal factor (Bacillus anthracis, UniProt P15917)
Sequence (P15917 whole entry): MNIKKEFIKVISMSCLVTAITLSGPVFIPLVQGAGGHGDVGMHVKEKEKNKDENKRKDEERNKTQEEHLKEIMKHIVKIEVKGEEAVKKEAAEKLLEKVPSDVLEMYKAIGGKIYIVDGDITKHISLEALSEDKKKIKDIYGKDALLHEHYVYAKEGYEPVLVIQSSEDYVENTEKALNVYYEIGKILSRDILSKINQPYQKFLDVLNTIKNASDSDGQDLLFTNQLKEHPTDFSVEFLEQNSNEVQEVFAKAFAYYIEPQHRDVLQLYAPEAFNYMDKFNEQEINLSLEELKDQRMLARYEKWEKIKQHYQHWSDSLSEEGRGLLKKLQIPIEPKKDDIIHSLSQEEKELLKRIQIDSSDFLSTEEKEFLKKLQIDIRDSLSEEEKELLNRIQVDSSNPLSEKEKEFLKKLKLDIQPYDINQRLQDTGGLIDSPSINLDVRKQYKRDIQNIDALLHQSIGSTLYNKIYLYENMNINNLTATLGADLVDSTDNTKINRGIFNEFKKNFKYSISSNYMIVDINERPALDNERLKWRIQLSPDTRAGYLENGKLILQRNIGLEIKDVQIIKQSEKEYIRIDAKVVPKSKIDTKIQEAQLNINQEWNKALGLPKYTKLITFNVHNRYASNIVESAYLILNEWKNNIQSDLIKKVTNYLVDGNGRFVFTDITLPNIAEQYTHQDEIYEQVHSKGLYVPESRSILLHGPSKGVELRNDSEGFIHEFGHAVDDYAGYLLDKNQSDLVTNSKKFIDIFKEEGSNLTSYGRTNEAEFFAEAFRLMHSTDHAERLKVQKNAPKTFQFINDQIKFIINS
Starred links: 1 amine or outer side, 2 acyl side, 3 side chain; linkers in the order of their positions; H or OH if unused. Residues, ends and D or L forms follow the SMILES beside them. *: point of attachment. CO = O=C([*:1])[*:2]; N(Me)OMe = CON(C)*
Remember, pKi is on a log scale: it is -log10 of the molar concentration.

### Prompt # returns recorded pKi (system: Lethal factor (Bacillus anthracis, UniProt P15917)) for `CCN(CCCC[C@@H](C[C@@H](OC)c1ccc(F)cc1)C(=O)NO)c1ccc(F)cc1`
### Response 9.57

### Prompt # returns recorded pKi (system: Lethal factor (Bacillus anthracis, UniProt P15917)) for CON(C)C(=O)N[C@@H](CCCNC(=N)N)C(=O)N[C@@H](CC(C)C)C(=O)N[C@H](C(=O)N[C@@H](CCCNC(=N)N)C(=O)O)C(C)C ({N(Me)OMe-CO}-RLVR-OH)
### Response 8.19

### Prompt # returns recorded pKi (system: Lethal factor (Bacillus anthracis, UniProt P15917)) for NC[C@@H]1O[C@H](O[C@H]2[C@@H](O)[C@H](O[C@@H]3[C@@H](O)[C@H](N)C[C@H](N)[C@H]3O[C@H]3O[C@H](CN)[C@@H](O)[C@H](O)[C@H]3N)O[C@@H]2CO)[C@H](N)[C@@H](O)[C@@H]1O [FRAMYCETIN]
### Response 8.15
